Assayed system: human VDR (Homo sapiens)
Construct: made in house; host or cells: E. coli (cell lysate used)
Experimental protocol: VDR binding affinity, split-luciferase vitamin D biosensor
Conditions used: Fig. 2b, Table S1; read-out: EC50 value (VDR binding affinity)
Measurement name: pEC50
Quick note: pEC50 values are minus log10 of concentrations in mol/L.

For the compound C=C1CCCC(C)(C)[C@@H]1CC/C(C)=C/CC[C@@H]1[C@@]2(C)CCCC(C)(C)[C@@H]2CC[C@@]1(C)O [compound 1, ambrein] , what pEC50 is on record?
3.95

---

Record form. Attribute: Relative binding affinity. Fill in for each entry.
Assayed system: human VDR (Homo sapiens, UniProt P11473)
Construct: made in house; host or cells: E. coli (cell lysate used)
Sequence (P11473 127-423 limits assumed): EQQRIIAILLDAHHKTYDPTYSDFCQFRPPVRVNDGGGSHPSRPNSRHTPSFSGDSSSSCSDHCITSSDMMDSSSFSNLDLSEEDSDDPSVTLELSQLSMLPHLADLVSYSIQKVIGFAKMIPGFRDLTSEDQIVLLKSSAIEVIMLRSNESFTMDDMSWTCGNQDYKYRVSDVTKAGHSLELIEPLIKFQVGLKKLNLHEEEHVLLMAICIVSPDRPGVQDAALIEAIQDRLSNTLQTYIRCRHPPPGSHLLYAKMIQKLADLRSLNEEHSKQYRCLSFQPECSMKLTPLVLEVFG
Experimental protocol: VDR binding affinity, split-luciferase vitamin D biosensor
Conditions used: normalized to that of 1
When you answer, write just the number.

Missing value: Relative binding affinity, human VDR (Homo sapiens, UniProt P11473), entry C=C1CC[C@H]2C(C)(C)CCC[C@]2(C)[C@H]1CC[C@@H]1[C@@]2(C)CCCC(C)(C)[C@@H]2CC[C@@]1(C)O [compound 6] . Fill in?
10

Missing value: Relative binding affinity, human VDR (Homo sapiens, UniProt P11473), entry CC1=CC[C@H]2C(C)(C)CCC[C@]2(C)[C@H]1CC[C@@H]1[C@@]2(C)CCCC(C)(C)[C@@H]2CC[C@@]1(C)O [compound 11] . Fill in?
8.9

Missing value: Relative binding affinity, human VDR (Homo sapiens, UniProt P11473), entry C=C1CCC(O)CC1=CC=C1CCCC2(C)C1CCC2C(C)CCCC(C)(C)O (stereo not drawn) [VD-II, 25-hydroxyvitamin D3, reference compound] . Fill in?
1510
